Entry source: patent US12570666B2

target: human GPR84 receptor (Homo sapiens); construct: frozen aliquots prepared by acCELLerate; host or cells: CHO-K1; test: cAMP HTRF assay for identification of cellular GPR84 antagonists; format: cell-based; conditions: CHO-K1 cells stably expressing human GPR84; Forskolin + agonist 6-OAU (EC80); average or median values
# note: exactly 60 nM is not below, so it is criterion not met; use criterion met for IC50 strictly under it

Reference set, count: 5
- Molecule: "O=C(NCCc1cccnc1)c1oc2c(c1C(F)(F)F)-c1nn(C[C@H]3COCCO3)cc1CC2"
  Discrete Label: "criterion not met"
- Molecule: "O=C(NC[C@@H]1COCCO1)c1oc2c(c1C(F)(F)F)-c1nn(C[C@@H]3COCCO3)cc1CC2"
  Discrete Label: "criterion met"
- Molecule: "Cc1c(C(=O)NCC2CCCO2)oc2c1-c1nn(Cc3ccccn3)cc1CC2 (racemic)"
  Discrete Label: "criterion not met"
- Molecule: "Cc1c(C(=O)NCC2CCC(C)(C)O2)oc2c1-c1nn(Cc3ccccn3)cc1CC2 (racemic)"
  Discrete Label: "criterion met"
- Molecule: "O=C(NC[C@@H]1CCCO1)c1oc2c(c1C(F)(F)F)-c1nn(CC3CCN(C(=O)C4CC4)CC3)cc1CC2"
  Discrete Label: "criterion met"

Here's an entry: Cc1c(C(=O)NC[C@@H]2COCCO2)oc2c1-c1nn(C(=O)N(C)C)cc1C1(CC1)C2 . Is its IC50 below 60 nM?
criterion not met

Here's an entry: Cc1c(C(=O)NC[C@H]2CCC3(COC3)O2)oc2c1-c1nn(C[C@H]3COCCO3)cc1C1(CC1)C2 (single isomer, unassigned) [Example 201-1] . Is its IC50 below 60 nM?
criterion not met

Here's an entry: O=C(NC[C@@H]1CCCO1)c1oc2c(c1C1CC1)-c1nn(Cc3ccccn3)cc1CC2 . Is its IC50 below 60 nM?
criterion met

====

molecular target: human GPR84 receptor (Homo sapiens, UniProt Q9NQS5); construct: frozen aliquots prepared by acCELLerate; experiment: cAMP HTRF assay for identification of cellular GPR84 antagonists; details: CHO-K1 cells stably expressing human GPR84; Forskolin + agonist 6-OAU (EC80); average or median values
Sequence (Q9NQS5 whole entry): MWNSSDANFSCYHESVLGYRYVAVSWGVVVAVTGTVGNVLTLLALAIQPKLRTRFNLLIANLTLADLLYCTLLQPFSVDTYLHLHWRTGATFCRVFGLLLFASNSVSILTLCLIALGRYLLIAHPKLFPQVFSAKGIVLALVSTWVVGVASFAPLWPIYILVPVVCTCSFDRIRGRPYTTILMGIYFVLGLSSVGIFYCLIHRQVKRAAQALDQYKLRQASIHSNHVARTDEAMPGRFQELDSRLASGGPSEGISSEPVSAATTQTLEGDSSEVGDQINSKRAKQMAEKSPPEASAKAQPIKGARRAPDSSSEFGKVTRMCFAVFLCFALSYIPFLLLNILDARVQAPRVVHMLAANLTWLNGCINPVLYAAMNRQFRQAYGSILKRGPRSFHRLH
Below: a set of entries, each annotated with reported pIC50.
Scale note: pIC50 = -log10(concentration in M).

Record excerpt, results attached:
- Molecule: "O=C(NCc1ncco1)c1oc2c(c1C1CC1)-c1nn(Cc3ccccn3)cc1CC2"
  pIC50: 7.21
- Molecule: "O=C(NC[C@H]1CC(F)(F)CO1)c1oc2c(c1C(F)(F)F)-c1nn(C[C@H]3COCCO3)cc1CC2 (single isomer, unassigned) [Example 222-1]"
  pIC50: 7.92
- Molecule: "Cc1c(C(=O)NC[C@@H]2CCCO2)oc2c1-c1nn(C[C@H]3CCOC3)cc1CC2"
  pIC50: 6.85

Now for another entry.
Recall the reported pIC50 of Cc1ccc(Cn2cc3c(n2)-c2c(oc(C(=O)NC[C@@H]4CCCO4)c2C)CC32CCC2)nc1 when tested on human GPR84 receptor (Homo sapiens, UniProt Q9NQS5).
7.66

====

biological target: human GPR84 receptor (Homo sapiens); construct: frozen aliquots prepared by acCELLerate; host or cells: CHO-K1; assay: cAMP HTRF assay for identification of cellular GPR84 antagonists; format: cell-based; settings: CHO-K1 cells stably expressing human GPR84; Forskolin + agonist 6-OAU (EC80); average or median values
Below: a set of entries, each annotated with reported log10 IC50.
Recall that a logarithmic scale is used here: each number is log10 of IC50 in nM.

Record excerpt, results attached:
- Compound: "Cc1c(C(=O)NC[C@@H]2CCCO2)oc2c1-c1nn(C[C@@H]3COCCO3)cc1CC2"
  log10 IC50: 2.30
- Compound: "Cc1c(C(=O)NCC2COC2)oc2c1-c1nn(Cc3ccccn3)cc1CC2"
  log10 IC50: 3.24
- Compound: "Cc1c(C(=O)NCc2ccn(C)n2)oc2c1-c1nn(Cc3ccccn3)cc1C1(CC1)C2"
  log10 IC50: 2.08
- Compound: "Cc1c(C(=O)NCC2CCC(C)(C)O2)oc2c1-c1nn(C[C@H]3COCCO3)cc1C1(CC1)C2 (mixture of isomers)"
  log10 IC50: 1.46
- Compound: "COCC(=O)N1CCC(Cn2cc3c(n2)-c2c(oc(C(=O)NC[C@@H]4CCCO4)c2C(F)(F)F)CC3)CC1"
  log10 IC50: 1.93

For the compound O=C(NC[C@@H]1COCCO1)c1oc2c(c1C(F)(F)F)-c1nn(Cc3ccccn3)cc1CC2 , give its reported log10 IC50.
1.45

For the compound C[C@@H]1Cc2oc(C(=O)NC[C@@H]3COCCO3)c(C(F)(F)F)c2-c2nn(CC3CCN(C(=O)C4(C)CC4)CC3)cc21 (single isomer, unassigned) , give its reported log10 IC50.
1.38
